- Protocol description: Pharmacokinetics following IV administration to rats (plasma, HPLC/MS)
- Test settings: male, Sprague Dawley, rat, 10 mg/kg
Observed property: Cmax (ng/mL)
Provide only the numeric value, understood in ng/mL.

Cmax recorded for this compound, CN(CCNC(=O)[C@@H](CCCNC(=N)N)NC(=O)CC(=O)O)C(=O)OC1=CC[C@@]2(O)[C@H]3Cc4ccc(O)c5c4[C@@]2(CCN3CC2CC2)[C@H]1O5 [Compound AN-1] , is 46300

----------
- Protocol description: Pharmacokinetics following IV administration to rats (plasma, HPLC/MS)
- Test settings: male, Sprague Dawley, rat, 2 mg/kg
Observed property: Cmax (ng/mL)
Provide only the numeric value, understood in ng/mL.

Cmax recorded for this compound, COc1ccc2c3c1O[C@H]1C(OC(=O)N(C)CCNC(=O)[C@@H](CCCNC(=N)N)NC(=O)CC(=O)O)=CC[C@@]4(O)[C@@H](C2)N(C)CC[C@]314 [Compound AG-2] , is 3410

----------
- Protocol description: Plasma and cerebrospinal fluid penetration following IV administration to rats
- Test settings: male, Sprague Dawley, rat, in vivo, iv, 10 mg/kg, Compound conc. in CSF, rats, IV 10 mg/kg Compound AN-3, 2-minute time point
Observed property: concentration at 2 min
Show the value, then the unit it is measured in.

concentration at 2 min recorded for this compound, O=C1CC[C@@]2(O)[C@H]3Cc4ccc(O)c5c4[C@@]2(CCN3CC2CC2)[C@H]1O5 [Naltrexone, naltrexone, reference compound] , is 0.813 ng/mL

----------
- Test system: human μ-opioid receptor (Homo sapiens)
- Construct: expressed in transfected cells; host or cells: CHO (Chinese hamster ovary) cells
- Protocol description: In vitro human μ-opioid receptor antagonist cellular functional assay (cAMP, HTRF)
- Type: cell-based
- Test settings: Antagonist EC50, Table 1, Example 9; CHO cells expressing human μ-opioid receptor, 37° C. 10 min
Observed property: EC50
Show the value, then the unit it is measured in.

EC50 recorded for this compound, CN(CCNC(=O)[C@@H](CCCNC(=N)N)NC(=O)CC(=O)O)C(=O)OC1=CC[C@@]2(O)[C@H]3Cc4ccc(O)c5c4[C@@]2(CCN3CC2CC2)[C@H]1O5 [Compound AN-1] , is 0.18 µM

----------
- Test system: human μ-opioid receptor (Homo sapiens, UniProt P35372)
- Construct: expressed in transfected cells; host or cells: CHO (Chinese hamster ovary) cells
- Sequence (P35372 whole entry): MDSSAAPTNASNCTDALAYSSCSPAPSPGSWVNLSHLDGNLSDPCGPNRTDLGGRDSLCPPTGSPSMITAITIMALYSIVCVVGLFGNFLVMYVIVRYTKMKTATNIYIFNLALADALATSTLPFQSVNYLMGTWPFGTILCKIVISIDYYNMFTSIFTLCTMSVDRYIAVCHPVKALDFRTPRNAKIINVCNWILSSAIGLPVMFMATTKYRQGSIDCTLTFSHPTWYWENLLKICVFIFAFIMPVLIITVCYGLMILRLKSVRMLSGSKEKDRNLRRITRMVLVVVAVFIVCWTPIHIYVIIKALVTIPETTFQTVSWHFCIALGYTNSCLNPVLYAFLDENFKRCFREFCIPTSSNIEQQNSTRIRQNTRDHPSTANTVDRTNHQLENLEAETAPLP
- Protocol description: In vitro human μ-opioid receptor antagonist cellular functional assay (cAMP, HTRF)
- Type: cell-based
- Test settings: Antagonist EC50, Table 15, Example 24; CHO cells expressing human μ-opioid receptor
Observed property: pEC50
Scale note: pEC50 = -log10(concentration in M).

pEC50 recorded for this compound, "CC(=O)N[C@H](CC(=O)O)C(=O)NCCN(C)C(=O)OC1=CC[C@@]2(O)C3Cc4ccc(O)c5c4[C@@]2(CCN3CC2CC2)[C@H]1O5" , is 6.52
